experiment: label from the status in PepcDB records;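 note: failed if final PepcDB status was selected cloned or expressed and not failed if soluble or beyond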
measuredAttribute: protein production

>>> readoutvalue("MSEILVLNCGSSSVKFALINPHTSQSLVTGLAENIATKNCKVVFKAEHKIVKYLENGSYKDVFEMLKDFLVENKHLEKIVAIGHRVVHGGQYFSKSVLINADSLEKIKACIALAPLHNPAHIEGIRFCQQIFPELPQVAVFDTAFHQTMPSYIAEYAIPYELTHKHNIRKYGAHGTSHKYVSEQAAKILTQQKANVIVAHLGNGCSITAVVDGKSIDTSMGLTPLDGLVMGTRSGCIDPSIFAYISDNLGWSVTEITNMLNKQSGLLGICGHNDMREVSQLAAKGDSLAKLAIEIFSHRVAKFVASYMIYFNKLDALVFTGGIGENAANIRKNIISKLANLGFMIDHQKNSNSETFINSKNSHNIMVIATNEELMIAQETQNLI")
"not failed"
>>> readoutvalue("MPSVSVNKQGIVKVNSALNMRSGPGSNYGVIGTLRNNDEVEIIKEVDGWYEIKFNGKSGYVSSQYIKVLEHHHHHH")
"not failed"
>>> readoutvalue("MNRIKEVLEEKGIKQTWLAEKLGKSFSIVNSYVCNRRQPSLDILFEIAKILEVDVRVLIGTKENRQKSK")
"not failed"
>>> readoutvalue("MGICVSFRREDSNSSPTVKIVTVNGDLREYNVPVIASQVLEAESAAAYSSSSSSRPSSYFICDSDSLYYDDFIPAIKSEEPLQADQIYFVLPISKRQSRLTASDMAALAVKASVAIQNSVKKESRRRKKVRISPVMMLTGSNDSVNGNGSETTVKKGRPFVSKTAPVKASSGINRSGSVRNLRRYTSKRAKLAVRSFRLKLSTIYEGSVV")
"failed"
>>> readoutvalue("MAELENPSVMSKLIAFLSSLLERVAESNDLTRRVATQSQRVSVFHGLSRPTITIQSYLERIFKYANCSPSCFVVAYVYLDRFTHRQPSLPINSFNVHRLLITSVMVAAKFLDDLYYNNAYYAKVGGISTKEMNFLELDFLFGLGFELNVTPNTFNAYFSYLQKEMTLLQPLSLVVVPSSRSLITFNDDEASHQKQQQQQLAV")
"failed"
>>> readoutvalue("MQAIAIDQFSEPEETQVEQVENPDRNEAGYEVCNQSGENLSVAIAYFDTSIDSYRSEGWWNLDQSKCQFFPNLLDSVDEVYVFAESDQTLWSGDFPFCMQEDAFEYPDANRDRCPSPAYSKGFLKVEVGDAKTWTTNLTPSQLEHHHHHH")
"failed"
>>> readoutvalue("MEELFCIGCGIQIQTEDKEKAGFTPAAALKKGMETGELYCQRCFRLRHYNEITDVHITDDEFLRLLHEVGDSDALVVNVIDIFDFNGSIIPGLSRFISGNDVLLVGNKKDILPKSVKDGKVTQWLTERAHEEGLRPLDVMLTSAQNKYAIKDLIGRINELRNGRDVYVVGVTNVGKSTLINAIIQEITGNKDVITTSRFPGTTLDKIEIPLDDGTFIFDTPGIIHRHQMAHYLSPKELKIVSPKKEIKPKTYQLNPEQTLFLGGLARFDFINGERQGFTAFFDNQLELHRTKLAGADAFYDKHVGTLLTPPDKKELTAFPKLVRHEFTIDQKMDIVFSGLGWIRVNGQKDSKAIVAAWAPEGVAVIVRKAIILEHHHHHH")
"not failed"
>>> readoutvalue("MEVNNETMQKSKFGRICVFCGSSQGKKSSYQDAAVDLGNELVLRNIDLVYGGGSIGLMGLVSQAVHDGGRHVIGVIPKTLMPRELTGETVGEVRAVADMHQRKAEMARHSDAFIALPGGYGTLEELLEVITWAQLGIHDKPVGLLNVDGYYNSLLSFIDKAVEEGFISTNARQIIISAPTAKELVKKLEEYSPCHESVATKLCWEIERIDYSSED")
"failed"
>>> readoutvalue("MAQPDREARPQFSHPTRQILTMLIVIGLSGFGVFVAMPRVLPVFQANPYLNGFILLVFIIGVLACFWQVVQLIGSVRWIEDFAAGQEREDTTPPSMLAPLASLLRSRAARMQISSSSTRSILDSVAERIEEEREITRYITNVLIYLGLLGTFFGLATTIPAVVDTIRSLNPQEGEEGLAVFNRLMTGLEAQLGGMGTAFGSSLLGLAGSLIVGLLELFTGHGQNRFYRELEEWLSTITRVGFSSGEEGHSESGAIAGVIDTMVEQMDALHAMFAASEEGRAEISGKLGALVETIAEMNQRQAETEDVTAALDRVAAGQETLIDFLREQGAHDGIDAESRMRLRSIDVQMLRILEEISAGRQESMAELRKDIELLAKALSVPRRPLRGVTRDEG")
"failed"
>>> readoutvalue("MSLWRLPMTLKTMTLAFAVTGLGVLAGSSPSVVQQRDGSQVVTPDEPKYNEDTGFYEYEKDGHKVQMNKDDVKTIEEVKLEHHHHHH")
"not failed"
>>> readoutvalue("GTVSWNLREMLAHAEETRKLMPICMDVRAIMATIQRKYKGIKIQEGIVDYGVRFFFYTSKEPVASIITKLNSLNEPLVTMPIGYVTHGFNLEEAARCMRSLKAPAVVSVSSPDAVTTYNGYLTSSSKTSEEHFVETVSLAGSYRDWSYSGQRTELGVEFLKRGDKIVYHTLESPVEFHLDGEVLSLDKLKSLLS")
"not failed"
>>> readoutvalue("MVKVLTACGNGMGSSMVIKMKVENALRQLGVSDIESASCSVGEAKGLASNYDIVVASNHLIHELDGRTNGKLIGLDNLMDDNEIKTKLEEALK")
"failed"
>>> readoutvalue("MLTTFIVNSPILASIVFTLITIATYQFASACQQKWQYIWLNPMLFTISILVPFLLLIDINYQEYSQTTEILNLLLEPAIVALGMPLYQQFKQIRFYWREMTAILVLGITVVITVSFLLAMWLIKAPEIAIALSLKSVTTPIGITLTEQLFGDSSITAFAILIAGLFGALLGPQWLSFIGINSAKAQGLAIGSASHVIGTAVLVRKSAEHGAYSSVALILSAILTALISPWLIPLLQRLVT")
"failed"

###

assay: label from the status in PepcDB records
measuredAttribute: protein production

>>> readoutvalue("MSKRWLYSLQLIFFITLVFVLVTGCYSHPNQNIQSANSKPVTSECRIIKHPLGETCIPLHPQRIIAMDEDILEILVALDLKPIAVAINFDEWSSREKQLWQKAEGIDSIVIGNHGILNLEKMLLLKPDLILGLAESTDRKSYELFSQIAPTVTVDYAQTAWRDVLLRVGNIIGKTEQAQKLIAEFQQRIEKLRVIVKNKLGKTKISVVRVYNYFHKTIEFRSNFSFPGSLLVELGLSFPEKQNQIPTSPGFPFVFASLERLDLLDADVMFVTLDAGGEENFKKFQASPLWQKLKAVKNNCVYTVDSGYWIFGNIMSANAILDDLDKYLLQQCR")
"failed"
>>> readoutvalue("MKLENQSETTANIQLNAPELVEANIAEVTSITIEKFLGSFTSVTRLLLNLSPLKNFHKDGLVSGKWNEPKDVPECLLSQLETFVWRRLDWGREEEKEIATYILKNGRRLKKETFTTNPIESEGLNKLKERLKVLNGLDGVQAPLFRKDGVVVGKWNQPKNVPQCLLSHLETFVWTRYRWEREEEKEEATYILKNARLLSKATFSTNIIDLKEFHWFKK")
"failed"
>>> readoutvalue("MDFDTIQIDYEKEETVMIGRAADKIFTRVFIFLIMTVYFWIYTVAGLVVLGIGPAFRTVTEMHMDKQWDYRLYHFKEGWQRFKRHFWQMNLHTWLFLGVGAVLAYNLYLSLSIHTLWIIFIQFIIVFALILDFSLAIFTVMLRSRYDVAFKDAIKLAIVQFFSNFTQLLTFIIGTIVLIVISLKWPGMILFLSPGIYMVGADRLSRRWYDKIDKMLGAV")
"failed"

###

test: label from the status in PepcDB records
measuredAttribute: protein production

>>> readoutvalue("KEGVLCLNTKGQITYANSQALKLLGGSLEELYGKTPQHYFTLENTEGKGMGELLERVLCGESTLQEGSGTLYKKERFLAHVEFTLSPIIDKG")
"failed"
>>> readoutvalue("MKIQDYTKQMVDEKSFIDMAYTLLNDKGETMNLYDIIDEFRALGDYEYEEIENRVVQFYTDLNTDGRFLNVGENLWGLRDWYSVDDIEEKIAPTIQKFDILDADDEEDQNLKLLGEDEMDDDDDIPAQTDDQEELNDPEDEQVEEEINHSDIVIEEDEDELDEDEEVFEDEEDFND")
"not failed"
>>> readoutvalue("MTTLGIVSDTHGYFHPNLADDLSGVDRILHAGDVGDPAILDGLEAVAPVTAVWGNIDDASLRRRLAEHERFTVAGLDVWMTHIAGRPGRWQDGMGTKLEATPPDVLVCGHSHILQVERVAALDDMLYVNPGAAGKQGFHQTKTCLRLAVEDGRATEAAVVHLDPDASPAQAPDP")
"failed"
>>> readoutvalue("MVLTKKYDKLGHILLNVFIVFCTFEVFIKGVLTLQQESSSGVNAIKIGILLFMIFAIVLKGKIKGMTTKIKGIMFIYLVFFIVLGLKILSINQMSDITGWLSDNNNLNYIFSFVCFIIILNIDIKRESVINTLIVSSTVVMVISFIFFIKNNYYGLAAPDIIQAYSMGFLNKTRMLSIFASPNHAGLYFVMVYLIVDFRGQKNLAMLFKLYKFLLIVCIMLTLSRTAIGILLLYIIIKIIRSKNAKSVVRFGIISLMVVLIGITLWIAISKYNVYFFSASYIKADNRWIKWQVAIEYIKKYWAIGAPFNIKVQMYAYVNSAITSVEFSDNLFLEIASRFGVPLIACIFIFMIKNLRRAFNEKKITDITKILVFIISSITTGSIHFTIPMILFIVYCDKFD")
"failed"
>>> readoutvalue("FLSTRDNVDELRKIENKSSFVSADNMPEYVKGAFISMEDERFYNHHGFDLKGTTRALFSTISDRDVQGGSTITQQVVKNYFYDNDRSFTRKVKELFVAHRVEKQYNKNEILSFYLNNIYFGDNQYTLEGAANHYFGTTVNKNSTTMSHITVLQSAILASKVNAPSVYNINN")
"failed"
>>> readoutvalue("MQWQESLPWTPEARQKLKNIPYFARVQARQRIEQLARQADLDEVTVDLVEQARLEFGQ")
"failed"
>>> readoutvalue("MPIRRRTSGNDRKNIGPRMEVARVREPFSFGVPERRRFAMQFGYDMRPSFWQEVRSNSHLVIAAVGTAALLGVAAVALWLALPTSERQAAASQEQSIPSIPVKTMKIVPAGTTVAAATVPQPARKSDQVSPTVAVAKANIQALAANDPRWTEAQPKTASAAPDQAAAPSQAANQAEPAPNKPAVTAAFAPSATDTDAASELAKVAAPAPAAGSNPDGAKTAAIPEVQPQAPEQQPTASDDGSKARAKPPKVAAAGNGRILRPVTMRSGPKKNAAAIGTVPARTSVQVMICKQWCQIVYNGKTGWVYKSYIKTGG")
"failed"
>>> readoutvalue("MKTLCTHSLPKEKMPYLLRSGEGERYLFGRQVATVMANGRSTGDLFEIVLLSGGKGDAFPLHVHKDTHEGILVLDGKLELTLDGERYLLISGDYANIPAGTPHSYRMQSHRTRLVSYTMKGNVAHLYSVIGNPYDHAEHPPYASEEVSNERFAEAAAVADIVFLDEAKPACSAKLAELTELPDGAVPYVLESGEGDRLLTGDQLHRIVAAQKNTDGQFIVVSSEGPKGDRIVDHYHEYHTETFYCLEGQMTMWTDGQEIQLNPGDFLHVPANTVHSYRLDSHYTKMVGVLVPGLFEPFFRTLGDPYEGHIFPCEPQALRFDRILQNIEALDLKVMKP")
"not failed"

The origin of these recorded values is a protein production outcome set (Wang et al. 2014).
